Target under test: human adenosine A2b receptor (Homo sapiens)
Sequence (P29275 whole entry): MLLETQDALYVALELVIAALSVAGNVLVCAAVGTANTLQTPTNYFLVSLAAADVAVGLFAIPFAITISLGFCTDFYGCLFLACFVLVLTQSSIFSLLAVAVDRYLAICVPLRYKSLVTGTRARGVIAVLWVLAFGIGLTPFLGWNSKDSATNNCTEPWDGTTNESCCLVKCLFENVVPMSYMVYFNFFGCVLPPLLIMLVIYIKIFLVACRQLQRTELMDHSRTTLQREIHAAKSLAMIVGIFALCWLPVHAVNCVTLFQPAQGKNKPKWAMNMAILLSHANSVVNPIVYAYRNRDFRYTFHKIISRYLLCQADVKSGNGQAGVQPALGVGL
Assay notes: Cellular in vitro reporter gene test for A2b receptor activity (antagonism of NECA)
Measurement conditions: recombinant CHO-K1 cells, CRE-luciferase reporter, co-incubation with EC50 concentration of NECA, 3 hours
// values below are reported IC50
Return type: number; implicit unit nM.

As a guide, the following entries are already answered.
Cc1c(CN2CCNC2=NC#N)sc2c1c(=O)n(C1COC1)c(=O)n2CCC(F)(F)F ... 68
Cc1c(CN2CCNC2=O)sc2c1c(=O)n(C1(C)CC1)c(=O)n2CCC(F)(F)F ... 3.6
Cc1c(CN2CCNC2=NC#N)sc2c1c(=O)n(C1CC1C)c(=O)n2CCOC(F)(F)F (single isomer, unassigned) [Example 265] ... 1.3

// moving on: another record for IC50
Form field: reported IC50 of "Cc1c(Cn2nc[nH]c2=O)sc2c1c(=O)n(C1CC1)c(=O)n2CCSC(F)(F)F"
40

====

Measured IC50, listed per entry.
Target under test: human adenosine A2b receptor (Homo sapiens)
Assay notes: Cellular in vitro reporter gene test for A2b receptor activity (antagonism of NECA)
Measurement conditions: recombinant CHO-K1 cells, CRE-luciferase reporter, co-incubation with EC50 concentration of NECA, 3 hours
Your answer is read as nM, so omit the unit and give the number.

Examples with their reported IC50 follow.
CCC1CC1n1c(=O)c2c(C)c(Cn3nc[nH]c3=O)sc2n(CCOC)c1=O (racemic) [Example 303] ... 71
Cc1c(CN2CCNC2=O)sc2c1c(=O)n(C1CC1C)c(=O)n2CCCF (single isomer, unassigned) [Example 92] ... 2.8
Cc1c(Cn2[nH]ccc2=O)sc2c1c(=O)n(C1(C)CC1)c(=O)n2CCC(F)(F)F [Example 215] ... 73
CCC1(n2c(=O)c3c(C)c(Cn4nc[nH]c4=O)sc3n(CCC(F)(F)F)c2=O)CC1 [Example 107] ... 290
Cc1c(Cn2nc[nH]c2=O)sc2c1c(=O)n(C1(C)CC1)c(=O)n2CCC(F)(F)F [Example 60] ... 15

Quick check: IC50 of Cc1c(Cn2nc[nH]c2=O)sc2c1c(=O)n(C1(C)CC1)c(=O)n2C [Example 53] ?
120

Further, for COCCn1c(=O)n(C2(C)CCC2)c(=O)c2c(C)c(CN3CCNC3=NC(=O)OC)sc21 [Example 141] ?
110

What would you report for Cc1c(CN2CCNC(=O)C2=O)sc2c1c(=O)n(C1COC1)c(=O)n2CCC(F)(F)F [Example 133] ?
430

Now this one: Cc1c(CN2CCNC2=O)sc2c1c(=O)n(C1CCC1)c(=O)n2CCC(F)(F)F [Example 110]
0.59

// repeat for COCCn1c(=O)n(C2CC3(CCC3)C2)c(=O)c2c(C)c(CN3CCNC3=NC#N)sc21 [Example 180] and report
13

Could you do the same for COCCn1c(=O)n(C2CCCC2)c(=O)c2c(C)c(CN3CCNC(=O)C3=O)sc21 [Example 192] , please?
140

And then COCCn1c(=O)n(C2CC(F)(F)C2)c(=O)c2c(C)c(CN3CCNC3=NC#N)sc21 [Example 126] , what is it?
14

Item: COC(=O)N=C1NCCN1Cc1sc2c(c1C)c(=O)n(C1CCCC1)c(=O)n2CCC(F)(F)F [Example 186]
7.9
